The reported measurements were obtained from patent US20210032365A1.

Target: T1, human C1s (human, UniProt P09871 16-688)
T1 construct: Analyte in the Biacore assays; also called hC1s; serum-derived human C1s (CompTech)
T1 sequence: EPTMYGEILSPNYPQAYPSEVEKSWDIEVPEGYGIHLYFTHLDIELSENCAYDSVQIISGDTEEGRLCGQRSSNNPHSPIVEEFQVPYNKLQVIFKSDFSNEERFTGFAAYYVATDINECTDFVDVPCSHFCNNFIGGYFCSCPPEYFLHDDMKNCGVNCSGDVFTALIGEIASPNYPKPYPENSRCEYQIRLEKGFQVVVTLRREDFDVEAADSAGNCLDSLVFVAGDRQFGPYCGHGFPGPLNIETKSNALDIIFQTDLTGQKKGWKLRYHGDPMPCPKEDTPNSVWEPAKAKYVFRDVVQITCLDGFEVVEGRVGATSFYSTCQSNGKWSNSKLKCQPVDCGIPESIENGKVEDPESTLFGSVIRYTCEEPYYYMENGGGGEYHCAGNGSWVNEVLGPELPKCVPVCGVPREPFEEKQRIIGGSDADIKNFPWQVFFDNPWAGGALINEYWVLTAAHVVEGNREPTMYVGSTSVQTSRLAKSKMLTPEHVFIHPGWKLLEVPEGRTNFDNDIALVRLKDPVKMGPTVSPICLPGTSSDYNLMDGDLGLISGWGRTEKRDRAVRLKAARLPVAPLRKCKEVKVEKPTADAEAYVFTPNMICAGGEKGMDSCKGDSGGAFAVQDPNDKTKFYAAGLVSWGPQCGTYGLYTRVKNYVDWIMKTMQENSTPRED
Test: SPR (Biacore T200, 37C), Ab captured on protein A/G; pH 5.8, 1.2 mM Ca
Parameter: Kd. Scope: all listed entries.
property: Kd (nM)

1) C1_IPN92H0080-SG4GK/IPN93L0024-SK1 (antibody, human IgG4 S228P, kappa, name in Kabat numbering, V domains shown, Substitutions from IPN009VH2, Kabat numbering; also called IPN92H0080/IPN93L0024) VH: EVMLVESGGGLVKPGGSLRLSCAASGFTFSNRAMSWVRQAPGKGLEWVATISSGGSHTYYLDSVKGRFTISRDNSKDTLYLQMNSLRAEDTALYYCARLFTGHAMDYWGQGTLVTVSS VL: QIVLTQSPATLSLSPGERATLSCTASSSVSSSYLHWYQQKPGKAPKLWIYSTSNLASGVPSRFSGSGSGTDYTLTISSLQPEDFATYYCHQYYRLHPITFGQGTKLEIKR    15.9
2) C1_IPN92H0279-SG4GK/IPN93L0091-SK1 (antibody, human IgG4 S228P, kappa, name in Kabat numbering, V domains shown, Substitutions from IPN009VH2 / IPN009VK3, Kabat numbering; also called IPN92H0279/IPN93L0091) VH: EVMLVESGGGLVKPGGSLRLSCAASGFTFSNYAMSWVRQAPGKGLEWVATISSGGSHTYELDSVKERFTISRDNSKDTLYLQMNSLRAEDTALYYCARLFTKHAMDYWGQGTLVTVSS VL: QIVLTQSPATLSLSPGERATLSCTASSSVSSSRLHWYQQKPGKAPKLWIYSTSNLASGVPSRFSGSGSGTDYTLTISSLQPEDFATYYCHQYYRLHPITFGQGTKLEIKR    20
3) C1_IPN92H0117-SG4GK/IPN93L0024-SK1 (antibody, human IgG4 S228P, kappa, name in Kabat numbering, V domains shown, Substitutions from IPN009VH2, Kabat numbering; also called IPN92H0117/IPN93L0024) VH: EVMLVESGGGLVKPGGSLRLSCAASGFTFSNYAMSWVRQAPGKGLEWVATISQGGSHTYYLDSVKGRFTISRDNSKDTLYLQMNSLRAEDTALYYCARLFTGHAMDYWGQGTLVTVSS VL: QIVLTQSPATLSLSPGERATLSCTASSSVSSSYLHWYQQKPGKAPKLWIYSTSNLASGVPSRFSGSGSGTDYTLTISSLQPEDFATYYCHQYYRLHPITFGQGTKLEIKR    13.1
4) C1_IPN92H0253-SG4GK/IPN93L0024-SK1 (antibody, human IgG4 S228P, kappa, name in Kabat numbering, V domains shown, Substitutions from IPN009VH2, Kabat numbering; also called IPN92H0253/IPN93L0024) VH: EVMLVESGGGLVKPGGSLRLSCAASGFTFSNYAMSWVRQAPGKGLEWVATISSGGSHTYYLDSVKGRFTISRDNSKDTLYLQMNSLRAEDTALYYCARLFTGHAMKYWGQGTLVTVSS VL: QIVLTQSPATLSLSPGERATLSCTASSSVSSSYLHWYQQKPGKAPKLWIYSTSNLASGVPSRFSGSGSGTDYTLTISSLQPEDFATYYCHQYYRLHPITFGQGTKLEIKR    1.52
5) C1_IPN92H0188-SG4GK/IPN93L0024-SK1 (antibody, human IgG4 S228P, kappa, name in Kabat numbering, V domains shown, Substitutions from IPN009VH2, Kabat numbering; also called IPN92H0188/IPN93L0024) VH: EVMLVESGGGLVKPGGSLRLSCAASGFTFSNYAMSWVRQAPGKGLEWVATISSGGSHTYYLDSVDGRFTISRDNSKDTLYLQMNSLRAEDTALYYCARLFTGHAMDYWGQGTLVTVSS VL: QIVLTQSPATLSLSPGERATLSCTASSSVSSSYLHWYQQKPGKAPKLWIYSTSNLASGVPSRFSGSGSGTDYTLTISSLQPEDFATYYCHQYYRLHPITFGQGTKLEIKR    8.21
